Where do the numbers come from? From patent US11629136B1.

- system under test: human SARM1(50-724) (Homo sapiens (Human), UniProt Q6SZW1)
- Sequence (Q6SZW1 50-724): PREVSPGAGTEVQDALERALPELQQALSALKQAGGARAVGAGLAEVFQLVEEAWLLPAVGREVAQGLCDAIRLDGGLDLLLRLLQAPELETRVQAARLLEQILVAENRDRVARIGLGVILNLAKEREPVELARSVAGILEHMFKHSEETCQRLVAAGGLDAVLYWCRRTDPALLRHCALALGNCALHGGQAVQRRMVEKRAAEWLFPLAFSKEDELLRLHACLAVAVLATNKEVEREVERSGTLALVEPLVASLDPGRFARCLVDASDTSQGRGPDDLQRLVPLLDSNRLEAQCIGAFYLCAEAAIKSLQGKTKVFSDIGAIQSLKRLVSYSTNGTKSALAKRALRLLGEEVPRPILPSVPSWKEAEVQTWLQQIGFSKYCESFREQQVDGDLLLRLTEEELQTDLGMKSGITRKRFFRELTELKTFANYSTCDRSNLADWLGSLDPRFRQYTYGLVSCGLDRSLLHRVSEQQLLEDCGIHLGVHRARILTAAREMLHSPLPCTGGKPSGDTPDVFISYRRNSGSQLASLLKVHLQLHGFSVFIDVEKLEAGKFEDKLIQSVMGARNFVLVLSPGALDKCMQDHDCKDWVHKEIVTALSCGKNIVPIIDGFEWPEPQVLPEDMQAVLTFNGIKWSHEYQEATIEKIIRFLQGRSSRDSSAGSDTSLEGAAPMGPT
- experimental details: SARM1 NAD hydrolase biological assay (HPLC readout of NAD and NAM peak areas)
- Format: biochemical
- applied conditions: 40 nM human SARM1(50-724), 0.3 mM NMN, 20 μM NAD, 60 minutes at room temperature; class symbols; read-out: Average IC50
observation type: IC50

**Query** Quote IC50 reported for ON=C(c1ncc(Cc2ccncc2)[nH]1)C(F)(F)F (mixture of isomers) [Example 13] please.
**Result** 1 to 10 µM

**Query** Quote IC50 reported for Cc1cnccc1Cc1c[nH]c(C(O)c2cncs2)n1 (racemic) [Example 21] please.
**Result** 10 to 100 µM

**Query** Quote IC50 reported for OC(c1ncc(Cc2ccncc2)[nH]1)(c1cncs1)C(F)(F)F (single isomer, unassigned) [Example 26] please.
**Result** 10 to 100 µM

**Query** Quote IC50 reported for NC(c1nc(Cc2ccncc2)c[nH]1)C(F)(F)F (single isomer, unassigned) [Example 15] please.
**Result** 1 to 10 µM

**Query** Quote IC50 reported for c1cc(Cc2c[nH]c(Cc3cncs3)n2)ccn1 [Example 6] please.
**Result** < 1 µM

**Query** Quote IC50 reported for OC(c1ccccn1)c1ncc(Cc2ccncc2)[nH]1 (racemic) [Example 35] please.
**Result** 1 to 10 µM

**Query** Quote IC50 reported for Cc1cnccc1Cc1c[nH]c(CC(F)(F)F)n1 [Example 25] please.
**Result** < 1 µM

**Query** Quote IC50 reported for CNC(c1ncc(Cc2ccncc2)[nH]1)C(F)(F)F (single isomer, unassigned) [Example 16] please.
**Result** 1 to 10 µM

* * *

- system under test: human SARM1(50-724) (Homo sapiens (Human), UniProt Q6SZW1)
- experimental details: SARM1 NAD hydrolase biological assay (HPLC readout of NAD and NAM peak areas)
- Assay type: biochemical
- applied conditions: 40 nM human SARM1(50-724), 0.3 mM NMN, 20 μM NAD, 60 minutes at room temperature; class symbols; read-out: Average IC50
pIC50: −log10 of the molar value.
observation type: pIC50

**Query** Quote pIC50 reported for N[C@H](c1nc(Cc2ccncc2)c[nH]1)C(F)(F)F (single isomer, unassigned) [Example 15a] please.
**Result** > 6.00

**Query** Quote pIC50 reported for O[C@H](c1nc(Cc2ccncc2F)c[nH]1)C(F)(F)F (single isomer, unassigned) [Example 38a] please.
**Result** 5.00 to 6.00

**Query** Quote pIC50 reported for C[C@@H](c1ccncc1)c1c[nH]c([C@H](O)C(F)(F)F)n1 (single isomer, unassigned) [Example 24] please.
**Result** > 6.00

**Query** Quote pIC50 reported for Cc1cnccc1Cc1c[nH]c([C@@H](O)C(F)(F)F)n1 (single isomer, unassigned) [Example 37a] please.
**Result** > 6.00

* * *

Task for the reader: assign each of the following compounds its reported IC50.
- system under test: human SARM1(50-724) (Homo sapiens (Human))
- experimental details: SARM1 NAD hydrolase biological assay (HPLC readout of NAD and NAM peak areas)
- Format: biochemical
- applied conditions: 40 nM human SARM1(50-724), 0.3 mM NMN, 20 μM NAD, 60 minutes at room temperature; class symbols; read-out: Average IC50

**Query** Quote IC50 reported for C[C@H](c1ccncc1)c1c[nH]c([C@@H](O)C(F)(F)F)n1 (single isomer, unassigned) [Example 24a] please.
**Result** 10000 to 100000 nM

**Query** Quote IC50 reported for Cc1cnccc1Cc1cnc([C@@H](O)c2cncs2)[nH]1 (single isomer, unassigned) [Example 30a] please.
**Result** 1000 to 10000 nM

**Query** Quote IC50 reported for "FC(F)(F)Cc1nc(Cc2ccncc2Cl)c[nH]1" please.
**Result** < 1000 nM

**Query** Quote IC50 reported for "FC(F)(F)Cc1csc(Cc2ccncc2)n1" please.
**Result** 1000 to 10000 nM

**Query** Quote IC50 reported for CN(C)[C@H](c1ncc(Cc2ccncc2)[nH]1)C(F)(F)F (single isomer, unassigned) [Example 17a] please.
**Result** 1000 to 10000 nM

**Query** Quote IC50 reported for CN[C@H](c1ncc(Cc2ccncc2)[nH]1)C(F)(F)F (single isomer, unassigned) [Example 16a] please.
**Result** 1000 to 10000 nM

**Query** Quote IC50 reported for NC(c1nc(Cc2ccncc2)cs1)C(F)(F)F (single isomer, unassigned) please.
**Result** 10000 to 100000 nM

**Query** Quote IC50 reported for CC(c1ccncc1)c1ccc(CC(F)(F)F)[nH]1 (racemic) please.
**Result** 1000 to 10000 nM

**Query** Quote IC50 reported for O[C@](c1ncc(Cc2ccncc2)[nH]1)(c1cncs1)C(F)(F)F (single isomer, unassigned) [Example 26a] please.
**Result** < 1000 nM

**Query** Quote IC50 reported for COC(c1ncc(Cc2ccncc2)[nH]1)C(F)(F)F (single isomer, unassigned) [Example 33a] please.
**Result** 1000 to 10000 nM

**Query** Quote IC50 reported for C[C@H](c1ccncc1)c1c[nH]c([C@H](O)C(F)(F)F)n1 (single isomer, unassigned) [Example 24b] please.
**Result** < 1000 nM

**Query** Quote IC50 reported for O[C@@H](c1nc(Cc2ccncc2F)c[nH]1)C(F)(F)F (single isomer, unassigned) please.
**Result** < 1000 nM

**Query** Quote IC50 reported for OC(c1nc(Cc2ccncc2Cl)c[nH]1)C(F)(F)F (racemic) please.
**Result** < 1000 nM

**Query** Quote IC50 reported for "OC(c1nc(Cc2ccncc2)c[nH]1)(C(F)(F)F)C(F)(F)F" please.
**Result** 1000 to 10000 nM

**Query** Quote IC50 reported for C[C@](O)(c1ncc(Cc2ccncc2)[nH]1)C(F)(F)F (single isomer, unassigned) [Example 32a] please.
**Result** 1000 to 10000 nM

**Query** Quote IC50 reported for C[C@H](c1ccncc1)c1c[nH]c(CC(F)(F)F)n1 (single isomer, unassigned) please.
**Result** 1000 to 10000 nM

* * *

- system under test: human SARM1(50-724) (Homo sapiens (Human))
- experimental details: SARM1 NAD hydrolase biological assay (HPLC readout of NAD and NAM peak areas)
- Assay type: biochemical
observation type: IC50

**Query** Look up and report measured IC50 (human SARM1(50-724) (Homo sapiens (Human))) for the following compound: "N#CCCc1nc(Cc2ccncc2)c[nH]1"
**Result** 1 to 10 µM

* * *

- system under test: human SARM1(50-724) (Homo sapiens (Human))
- experimental details: SARM1 NAD hydrolase biological assay (HPLC readout of NAD and NAM peak areas)
- Assay type: biochemical
- applied conditions: 40 nM human SARM1(50-724), 0.3 mM NMN, 20 μM NAD, 60 minutes at room temperature; class symbols; read-out: Average IC50
Structures can show the parent of a compound that is named as a salt.
observation type: IC50

**Query** Quote IC50 reported for "FC(F)(F)Cc1nc(Cc2ccncc2)c[nH]1" please.
**Result** < 1 µM

**Query** Quote IC50 reported for O[C@H](c1nc(Cc2ccncc2)c[nH]1)c1cncs1 (single isomer, unassigned) [Example 20a] please.
**Result** < 1 µM

**Query** Quote IC50 reported for O[C@H](c1ncc(Cc2ccncc2)[nH]1)C(F)(F)F (single isomer, unassigned) please.
**Result** < 1 µM

**Query** Quote IC50 reported for CN(C)C(c1ncc(Cc2ccncc2)[nH]1)C(F)(F)F (single isomer, unassigned) please.
**Result** 10 to 100 µM

**Query** Quote IC50 reported for C[C@@](O)(c1ncc(Cc2ccncc2)[nH]1)C(F)(F)F (single isomer, unassigned) please.
**Result** < 1 µM

**Query** Quote IC50 reported for CO[C@@H](c1ncc(Cc2ccncc2)[nH]1)C(F)(F)F (single isomer, unassigned) please.
**Result** 1 to 10 µM

**Query** Quote IC50 reported for "Fc1cnccc1Cc1c[nH]c(CC(F)(F)F)n1" please.
**Result** < 1 µM

**Query** Quote IC50 reported for "N#CCc1nc(Cc2ccncc2)c[nH]1" please.
**Result** < 1 µM

**Query** Quote IC50 reported for "FC(F)(F)Cc1nc(Cc2ccncc2)n[nH]1" please.
**Result** 10 to 100 µM

**Query** Quote IC50 reported for C[C@@H](c1ccncc1)c1c[nH]c(CC(F)(F)F)n1 (single isomer, unassigned) please.
**Result** < 1 µM

**Query** Quote IC50 reported for Cc1cnccc1Cc1cnc([C@H](O)c2cncs2)[nH]1 (single isomer, unassigned) please.
**Result** 10 to 100 µM

**Query** Quote IC50 reported for O=C(c1ncc(Cc2ccncc2)[nH]1)C(F)(F)F [Example 12, hydrochloride] please.
**Result** < 1 µM

**Query** Quote IC50 reported for CC(O)(c1nc(Cc2ccncc2)c[nH]1)C(F)(F)F (racemic) please.
**Result** 1 to 10 µM

**Query** Quote IC50 reported for "FC(F)(F)CCc1nc(Cc2ccncc2)c[nH]1" please.
**Result** 1 to 10 µM

**Query** Quote IC50 reported for CC(c1ccncc1)c1c[nH]c(CC(F)(F)F)n1 (racemic) please.
**Result** < 1 µM

**Query** Quote IC50 reported for "FC(F)(F)Cc1ncc(Cc2c(Cl)cncc2Cl)[nH]1" please.
**Result** 10 to 100 µM

**Query** Quote IC50 reported for O[C@@H](c1ncc(Cc2ccncc2)[nH]1)c1nccs1 (single isomer, unassigned) [Example 31a] please.
**Result** 1 to 10 µM

**Query** Quote IC50 reported for "FC(F)(F)Cc1nc(Cc2ccncc2)cs1" please.
**Result** 1 to 10 µM
